Values from paper PMC8708495

# ASSAY TEXT: Population pharmacokinetic modeling (NPAG, Pmetrics)
# Assay type: in vivo, human
# PARTICULARS: human, serum, po, 200 mg daily, Mean; final population pharmacokinetic model; read-out: Fos, oral bioavailability
OBSERVATION TYPE: bioavailability (%)
Entry rule: numbers only, all in %.

The measured bioavailability associated with C[C@@H](c1nc(-c2ccc(C#N)cc2)cs1)[C@](O)(Cn1cncn1)c1cc(F)ccc1F reads 95

====

# ASSAY TEXT: Population pharmacokinetic modeling (NPAG, Pmetrics)
# Format: in vivo, human
# PARTICULARS: human, serum, other: orally or intravenously, 200 mg daily, Mean; final population pharmacokinetic model; read-out: CL, total body clearance (converted)
OBSERVATION TYPE: clearance (mL/min)
Supply the numeric figure in mL/min, leaving out any unit text.

Lab note: measured clearance of C[C@@H](c1nc(-c2ccc(C#N)cc2)cs1)[C@](O)(Cn1cncn1)c1cc(F)ccc1F [isavuconazole, Isavuconazole] was 25.3

====

# ASSAY TEXT: Population pharmacokinetic modeling (NPAG, Pmetrics)
# Format: in vivo, human
# PARTICULARS: human, serum, other: orally or intravenously, 200 mg daily, Median; final population pharmacokinetic model; read-out: V, volume of distribution of the central compartment
OBSERVATION TYPE: Vd (L)
# unit: L | format: bare number

Per the record, C[C@@H](c1nc(-c2ccc(C#N)cc2)cs1)[C@](O)(Cn1cncn1)c1cc(F)ccc1F has Vd of 103

====

# ASSAY TEXT: Population pharmacokinetic modeling (NPAG, Pmetrics)
# Type: in vivo, human
# PARTICULARS: human, serum, po, 200 mg daily, Median; final population pharmacokinetic model; read-out: Fos, oral bioavailability
OBSERVATION TYPE: bioavailability (%)
State the answer as a number, implicitly in %.

Just so you know, measured bioavailability for C[C@@H](c1nc(-c2ccc(C#N)cc2)cs1)[C@](O)(Cn1cncn1)c1cc(F)ccc1F came out at 100

====

# ASSAY TEXT: Population pharmacokinetic modeling (NPAG, Pmetrics)
# Assay type: in vivo, human
# PARTICULARS: human, serum, other: orally or intravenously, 200 mg daily, population pharmacokinetic model; read-out: median volume of distribution
OBSERVATION TYPE: Vd (L)
Numbers only; they are read as L.

The measured Vd associated with C[C@@H](c1nc(-c2ccc(C#N)cc2)cs1)[C@](O)(Cn1cncn1)c1cc(F)ccc1F [isavuconazole, Isavuconazole] reads 489
